- Assay Target: human full-length CCK-2 receptor (Homo sapiens, UniProt P32239)
- Construct: stably transfected to over-express the human full-length CCK-2 receptor (A431-CCK-2R); expressed in transfected cells
- Assay Procedure: Competitive ligand binding against [^177Lu]Lu-DOTA-CP04 in A431-CCK-2R cells
- Measurement Conditions: substituted-phenylalanine peptides based on Cmp ex-1 (Table 3); read-out: IC50
Square brackets hold non-standard residues; d marks the D form. Peptide text beside a SMILES is read from it. 2Nal = N[C@@H](Cc1ccc2ccccc2c1)C(=O)O; NMeNle = CCCC[C@H](NC)C(=O)O; Sar = CNCC(=O)O
Recorded Endpoint: IC50

Molecule	Readout Value
CCCC[C@@H](C(=O)N[C@@H](CC(=O)O)C(=O)N[C@@H](Cc1ccc2ccccc2c1)C(N)=O)N(C)C(=O)[C@H](Cc1c[nH]c2ccccc12)NC(=O)CN(C)C(=O)[C@H](Cc1ccc(O)cc1)NC(=O)[C@H](C)NC(=O)[C@@H](CCC(=O)O)NC(=O)[C@@H](CCC(=O)O)NC(=O)[C@@H](CCC(=O)O)NC(=O)[C@@H](CCC(=O)O)NC(=O)[C@@H](CCC(=O)O)NC(=O)[C@H](N)CCC(=O)O [L] (H-[dE][dE][dE][dE][dE][dE]AY[Sar]W[NMeNle]D[2Nal]-NH2; N-terminus assumed)	0.6 nM

###

- Assay Target: human full-length CCK-2 receptor (Homo sapiens)
- Construct: stably transfected to over-express the human full-length CCK-2 receptor (A431-CCK-2R); expressed in transfected cells
- Assay Procedure: Competitive ligand binding against [^177Lu]Lu-DOTA-CP04 in A431-CCK-2R cells
- Measurement Conditions: modified peptides based on Peptide C (Table 4); read-out: IC50
pIC50: −log10 of the molar value. Square brackets hold non-standard residues; d marks the D form. Peptide text beside a SMILES is read from it. Phe(F5) = N[C@@H](Cc1c(F)c(F)c(F)c(F)c1F)C(=O)O; NMeNle = CCCC[C@H](NC)C(=O)O; Sar = CNCC(=O)O
Recorded Endpoint: pIC50

Compound	Readout Value
CCCC[C@@H](C(=O)N[C@@H](CC(=O)O)C(=O)N[C@@H](Cc1c(F)c(F)c(F)c(F)c1F)C(N)=O)N(C)C(=O)[C@H](Cc1c[nH]c2ccccc12)NC(=O)CN(C)C(=O)[C@H](Cc1ccc(O)cc1)NC(=O)[C@H](C)NC(=O)[C@@H](CCC(=O)O)NC(=O)[C@@H](CCC(=O)O)NC(=O)[C@@H](CCC(=O)O)NC(=O)[C@@H](C)NC(=O)[C@@H](CCC(=O)O)NC(=O)[C@H](N)CCC(=O)O [T] (H-[dE][dE][dA][dE][dE][dE]AY[Sar]W[NMeNle]D[Phe(F5)]-NH2; N-terminus assumed)	9.22

###

Reported IC50 values for a set of compounds
- Assay Target: human full-length CCK-2 receptor (Homo sapiens)
- Construct: stably transfected to over-express the human full-length CCK-2 receptor (A431-CCK-2R); expressed in transfected cells
- Sequence (P32239 1-447): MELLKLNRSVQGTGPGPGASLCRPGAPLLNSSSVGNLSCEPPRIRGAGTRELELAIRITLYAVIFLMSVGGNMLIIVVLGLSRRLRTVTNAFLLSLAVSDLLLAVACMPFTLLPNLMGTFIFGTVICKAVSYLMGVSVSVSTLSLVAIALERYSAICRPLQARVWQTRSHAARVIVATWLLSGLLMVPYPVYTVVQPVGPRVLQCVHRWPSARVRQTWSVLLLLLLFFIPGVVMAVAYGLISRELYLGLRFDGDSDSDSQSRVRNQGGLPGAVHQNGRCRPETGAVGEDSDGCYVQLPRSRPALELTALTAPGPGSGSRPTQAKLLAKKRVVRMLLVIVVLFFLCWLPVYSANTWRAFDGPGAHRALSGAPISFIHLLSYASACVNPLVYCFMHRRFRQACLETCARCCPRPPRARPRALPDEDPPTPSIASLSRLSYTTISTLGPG
- Assay Procedure: Competitive ligand binding against [^177Lu]Lu-DOTA-CP04 in A431-CCK-2R cells
- Measurement Conditions: modified peptides based on Peptide C (Table 4); read-out: IC50
- Method: CCK-2 receptor binding experiments were conducted using A431 (human epidermoid carcinoma) cells stably transfected to over-express the human full-length CCK-2 receptor (A431-CCK-2R). As a negative control, A431 cells stably transfected with an empty vector were analysed simultaneously (A431-EV). […] The affinity of peptides for the CCK-2R was evaluated using competitive binding assays against [^177Lu]Lu-DOTA-CP04 in A431-CCK-2R cells. […]
Square brackets hold non-standard residues; d marks the D form. Peptide text beside a SMILES is read from it. Phe(4-Ac) = CC(=O)c1ccc(C[C@H](N)C(=O)O)cc1; Phe(4-F) = N[C@@H](Cc1ccc(F)cc1)C(=O)O; NMeNle = CCCC[C@H](NC)C(=O)O; Sar = CNCC(=O)O
Recorded Endpoint: IC50

Compound	Assay Target	Readout Value
CCCC[C@@H](C(=O)N[C@@H](CC(=O)O)C(=O)N[C@@H](Cc1ccc(C(C)=O)cc1)C(N)=O)N(C)C(=O)[C@H](Cc1c[nH]c2ccccc12)NC(=O)CN(C)C(=O)[C@H](Cc1ccc(O)cc1)NC(=O)[C@H](C)NC(=O)[C@@H](CCC(=O)O)NC(=O)[C@@H](CCC(=O)O)NC(=O)[C@@H](CCC(=O)O)NC(=O)[C@@H](C)NC(=O)[C@@H](CCC(=O)O)NC(=O)[C@H](N)CCC(=O)O [V] (H-[dE][dE][dA][dE][dE][dE]AY[Sar]W[NMeNle]D[Phe(4-Ac)]-NH2; N-terminus assumed)	human full-length CCK-2 receptor (Homo sapiens)	0.948 nM
CCCC[C@@H](C(=O)N[C@@H](CC(=O)O)C(=O)N[C@@H](Cc1ccc(F)cc1)C(N)=O)N(C)C(=O)[C@H](Cc1c[nH]c2ccccc12)NC(=O)CN(C)C(=O)[C@H](Cc1ccc(O)cc1)NC(=O)[C@H](C)NC(=O)[C@@H](CCC(=O)O)NC(=O)[C@@H](CCC(=O)O)NC(=O)[C@@H](CCC(=O)O)NC(=O)[C@@H](C)NC(=O)[C@@H](CCC(=O)O)NC(=O)[C@H](N)CCC(=O)O [O] (H-[dE][dE][dA][dE][dE][dE]AY[Sar]W[NMeNle]D[Phe(4-F)]-NH2; N-terminus assumed)	human full-length CCK-2 receptor (Homo sapiens)	0.368 nM

###

- Assay Target: human full-length CCK-2 receptor (Homo sapiens)
- Construct: stably transfected to over-express the human full-length CCK-2 receptor (A431-CCK-2R); expressed in transfected cells
- Assay Procedure: Competitive ligand binding against [^177Lu]Lu-DOTA-CP04 in A431-CCK-2R cells
- Measurement Conditions: substituted-phenylalanine peptides based on Cmp ex-1 (Table 3); read-out: IC50
pIC50: −log10 of the molar value. Square brackets hold non-standard residues; d marks the D form. Peptide text beside a SMILES is read from it. Phe(3,4,5-F3) = N[C@@H](Cc1cc(F)c(F)c(F)c1)C(=O)O; Phe(F5) = N[C@@H](Cc1c(F)c(F)c(F)c(F)c1F)C(=O)O; Phe(3,4-F2) = N[C@@H](Cc1ccc(F)c(F)c1)C(=O)O; Phe(4-NH2) = Nc1ccc(C[C@H](N)C(=O)O)cc1; Phe(4-F) = N[C@@H](Cc1ccc(F)cc1)C(=O)O; NMeNle = CCCC[C@H](NC)C(=O)O; Sar = CNCC(=O)O
Reported pIC50 values for a set of compounds
Recorded Endpoint: pIC50

Compound	Recorded Endpoint	Readout Value
CCCC[C@@H](C(=O)N[C@@H](CC(=O)O)C(=O)N[C@@H](Cc1ccc(N)cc1)C(N)=O)N(C)C(=O)[C@H](Cc1c[nH]c2ccccc12)NC(=O)CN(C)C(=O)[C@H](Cc1ccc(O)cc1)NC(=O)[C@H](C)NC(=O)[C@@H](CCC(=O)O)NC(=O)[C@@H](CCC(=O)O)NC(=O)[C@@H](CCC(=O)O)NC(=O)[C@@H](CCC(=O)O)NC(=O)[C@@H](CCC(=O)O)NC(=O)[C@H](N)CCC(=O)O [K] (H-[dE][dE][dE][dE][dE][dE]AY[Sar]W[NMeNle]D[Phe(4-NH2)]-NH2; N-terminus assumed)	pIC50	9.28
CCCC[C@@H](C(=O)N[C@@H](CC(=O)O)C(=O)N[C@@H](Cc1ccc(F)c(F)c1)C(N)=O)N(C)C(=O)[C@H](Cc1c[nH]c2ccccc12)NC(=O)CN(C)C(=O)[C@H](Cc1ccc(O)cc1)NC(=O)[C@H](C)NC(=O)[C@@H](CCC(=O)O)NC(=O)[C@@H](CCC(=O)O)NC(=O)[C@@H](CCC(=O)O)NC(=O)[C@@H](CCC(=O)O)NC(=O)[C@@H](CCC(=O)O)NC(=O)[C@H](N)CCC(=O)O [H] (H-[dE][dE][dE][dE][dE][dE]AY[Sar]W[NMeNle]D[Phe(3,4-F2)]-NH2)	pIC50	9.19
CCCC[C@@H](C(=O)N[C@@H](CC(=O)O)C(=O)N[C@@H](Cc1ccc(F)cc1)C(N)=O)N(C)C(=O)[C@H](Cc1c[nH]c2ccccc12)NC(=O)CN(C)C(=O)[C@H](Cc1ccc(O)cc1)NC(=O)[C@H](C)NC(=O)[C@@H](CCC(=O)O)NC(=O)[C@@H](CCC(=O)O)NC(=O)[C@@H](CCC(=O)O)NC(=O)[C@@H](CCC(=O)O)NC(=O)[C@@H](CCC(=O)O)NC(=O)[C@H](N)CCC(=O)O [G] (H-[dE][dE][dE][dE][dE][dE]AY[Sar]W[NMeNle]D[Phe(4-F)]-NH2)	pIC50	9.04
CCCC[C@@H](C(=O)N[C@@H](CC(=O)O)C(=O)N[C@@H](Cc1c(F)c(F)c(F)c(F)c1F)C(N)=O)N(C)C(=O)[C@H](Cc1c[nH]c2ccccc12)NC(=O)CN(C)C(=O)[C@H](Cc1ccc(O)cc1)NC(=O)[C@H](C)NC(=O)[C@@H](CCC(=O)O)NC(=O)[C@@H](CCC(=O)O)NC(=O)[C@@H](CCC(=O)O)NC(=O)[C@@H](CCC(=O)O)NC(=O)[C@@H](CCC(=O)O)NC(=O)[C@H](N)CCC(=O)O [J] (H-[dE][dE][dE][dE][dE][dE]AY[Sar]W[NMeNle]D[Phe(F5)]-NH2; N-terminus assumed)	pIC50	8.72
CCCC[C@@H](C(=O)N[C@@H](CC(=O)O)C(=O)N[C@@H](Cc1cc(F)c(F)c(F)c1)C(N)=O)N(C)C(=O)[C@H](Cc1c[nH]c2ccccc12)NC(=O)CN(C)C(=O)[C@H](Cc1ccc(O)cc1)NC(=O)[C@H](C)NC(=O)[C@@H](CCC(=O)O)NC(=O)[C@@H](CCC(=O)O)NC(=O)[C@@H](CCC(=O)O)NC(=O)[C@@H](CCC(=O)O)NC(=O)[C@@H](CCC(=O)O)NC(=O)[C@H](N)CCC(=O)O [I] (H-[dE][dE][dE][dE][dE][dE]AY[Sar]W[NMeNle]D[Phe(3,4,5-F3)]-NH2)	pIC50	9.59
